The reported numbers originate from patent US20230192860A1.

biological target: T1, monovalent hVISTA-ECD with polyhistidine tail (SEQ ID NO: 325) (human, UniProt Q9H7M9 33-193); assay: SPR, mAb captured on Protein A chip, hVISTA injected, PBST pH 7.4, 37 C
T1 construct: also called hVISTA-ECD 6-His tag; human VISTA
T1 sequence (Q9H7M9 other isoform, or with tags, fused parts or gaps limits assumed): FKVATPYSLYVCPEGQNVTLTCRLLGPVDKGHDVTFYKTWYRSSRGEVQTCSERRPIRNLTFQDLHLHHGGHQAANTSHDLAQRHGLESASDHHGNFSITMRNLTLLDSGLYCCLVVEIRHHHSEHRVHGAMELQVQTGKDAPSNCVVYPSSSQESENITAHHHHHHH
endpoint.label: kon (M⁻¹ s⁻¹)
Just the number in M⁻¹ s⁻¹, nothing appended.

Use these answered entries as a reference point.
*Q* Please look up its kon: P1-077865 (P1-068748 H31S) (antibody, V domains shown, Reversion mutant of P1-068748 (Kabat names); captured on a Protein A chip) VH: QVQLVESGGGVVQPGRSLRLSCAASGFTFSSHAMHWVRQAPGKGLEWVAIIWYDGSNDDYADSVKGRFTISRDNSKNTLYLQMNSLRAEDTAVYYCARDSGFYDSYYFDYWGQGTLVTVSS VL: EIVLTQSPATLSLSPGERATLSCRASQSVSSSYLAWYQQKPGQAPRLLIYDASNRATGIPARFSGSGSGTDFTLTISSLEPEDFATYYCQQYNSYPYTFGQGTKLEIK
*A* 69000

*Q* Please look up its kon: P1-077891 (P1-068748 H32Y D100S) (antibody, V domains shown, Reversion mutant of P1-068748 (Kabat names); captured on a Protein A chip) VH: QVQLVESGGGVVQPGRSLRLSCAASGFTFSHYAMHWVRQAPGKGLEWVAIIWYDGSNDDYADSVKGRFTISRDNSKNTLYLQMNSLRAEDTAVYYCARDSGFYSSYYFDYWGQGTLVTVSS VL: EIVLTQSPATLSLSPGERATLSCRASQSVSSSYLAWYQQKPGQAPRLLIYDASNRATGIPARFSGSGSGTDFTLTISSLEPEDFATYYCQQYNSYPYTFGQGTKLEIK
*A* 1.2e+06

Here's the next entry for you.
*Q* Please look up its kon: P1-077867 (P1-068748 H32Y) (antibody, V domains shown, Reversion mutant of P1-068748 (Kabat names); captured on a Protein A chip) VH: QVQLVESGGGVVQPGRSLRLSCAASGFTFSHYAMHWVRQAPGKGLEWVAIIWYDGSNDDYADSVKGRFTISRDNSKNTLYLQMNSLRAEDTAVYYCARDSGFYDSYYFDYWGQGTLVTVSS VL: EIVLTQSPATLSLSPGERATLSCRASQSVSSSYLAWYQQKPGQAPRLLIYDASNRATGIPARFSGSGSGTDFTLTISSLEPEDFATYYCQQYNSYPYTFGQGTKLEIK
*A* 120000
